assaySummary: NCI Yeast Anticancer Drug Screen. Data for the cln2 rad14 strain (AID 165);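 also: 0% = growth equal to vehicle treated cultures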
assayContext: S. cerevisiae cln2 rad14 strain, at 50.0 µM, active compounds read high
Protocol: Growth inhibition of yeast strains with defined genetic alterations is measured as a screen for potential anti-cancer activity. Selected strains with alterations in DNA damage repair or cell cycle control were exposed to compounds and growth inhibition was measured relative to vehicle treated controls. The strain used in this assay is cln2 rad14
About 79,000 compounds went through this panel and 15% of them were active in at least one assay; those are over-represented in the sample as a whole.
Items are presented alongside their recorded growth inhibition.
Write the number in % without appending the unit.

>>> df
                                   molecule          valuekind  quantitativeresult
0                          CNc1ccccc1C(=O)O  growth inhibition               -9.75
1             C/C=C/CC1(CC)C(=O)NC(=S)NC1=O  growth inhibition                   9
2  C[C@@]1(C(=O)c2ccccc2)N(c2ccccc2)[C@@]1(C)C(=O)c1ccccc1  growth inhibition                21.8
3  CC1OC(n2cc(C(N)=O)c3c(N)ncnc32)C(O)C1O (configuration not stated)  growth inhibition                16.9
4  CC1CN1C1c2ccccc2CC1O (configuration not stated)  growth inhibition               -15.4

GET /values?readout=growth inhibition&item= CC1CN1P(=O)(N1CCc2ccccc21)N1CC1C (configuration not stated)
-24.7
